Target: mGluR4 (UniProt Q14833)
Test: mGluR4 potentiation assay: increase in response to an EC20 concentration of agonist (species not given)
Conditions: EC50 for potentiation of mGluR4; table does not state human or rat
From the text: The disclosed compounds and compositions can be evaluated for their ability to act as a potentiator of metabotropic glutamate receptor activity, in particular mGluR4 activity, by any suitable known methodology known in the art. […] The cells were loaded with either a Ca2+-sensitive fluorescent dye or the thallium responsive dye and the plates were washed and placed into a suitable kinetic plate reader. […]
Each entry falls into one class according to its EC50; the ranges are L (below 200 nM), M (200 nM to below 500 nM), H (500 nM or more)

Cc1ccc(-n2nc(C)c3cc(Nc4n[nH]c5cccnc45)ccc32)cc1 [Example 93]
H
Cc1c2cc(Nc3n[nH]c4cccnc34)ccc2nn1C(C)C [Example 59]
H
CCn1nc(Cl)c2cc(Nc3n[nH]c4cccnc34)ccc21 [Example 141]
H
Cc1cc(Nc2n[nH]c3nccnc23)cc2c1cnn2C [Example 51]
L
Cc1cncc(-c2nn(C)c3cc(Nc4n[nH]c5cccnc45)ccc23)c1 [Example 178]
H
CCc1nn(C)c2cc(Nc3n[nH]c4cccnc34)ccc12 [Example 24]
L
COCCn1nc(C)c2cc(Nc3n[nH]c4cccnc34)ccc21 [Example 133]
M
[2H]C([2H])([2H])Oc1nn(C)c2cc(Nc3n[nH]c4cccnc34)ccc12 [Example 240]
M
Cn1nc(C2CC2)c2ccc(Nc3n[nH]c4ncc(F)cc34)cc21 [Example 5]
M
c1cnc2c(Nc3cccc4c3cnn4CC3CCC3)n[nH]c2c1 [Example 34]
H

Would you mind sorting Cc1cc(Cn2ncc3ncc(Nc4n[nH]c5ccccc45)cc32)no1 [Example 26] into the appropriate category? H

Lookup Cn1nc(OCC2(C)COC2)c2ccc(Nc3n[nH]c4cccnc34)cc21 [Example 194] L

Ok, now CC(C)n1nc(C2CC2)c2ccc(Nc3n[nH]c4nccnc34)cc21 [Example 17] H

Entry to check: Cc1cc(Cn2nc(C)c3cc(Nc4n[nH]c5cccnc45)ccc32)on1 [Example 130] L

Record: Cc1nn(CCCO)c2ncc(Nc3n[nH]c4cccnc34)cc12 [Example 255] H
